assay: Solubility of non-natural cooling compounds in lactic acid; format: physicochemical; conditions: warmed to about 50° C. with gentle agitation for 1 hour per step, highest tested weight % that dissolved
value-type: Soluble solution (solubility of non-natural cooling compound in lactic acid) (wt% wt %)
Give the number; wt% wt % is assumed, so skip it.

Known results for molecules:
Any idea what Soluble solution (solubility of non-natural cooling compound in lactic acid) was measured for CCOC(=O)CNC(=O)C1CC(C)CCC1C(C)C (stereo not shown) ?
20

Any idea what Soluble solution (solubility of non-natural cooling compound in lactic acid) was measured for CNC(=O)C(C)(C(C)C)C(C)C [2-isopropyl-N,2,3-trimethylbutanamide] ?
20

Any idea what Soluble solution (solubility of non-natural cooling compound in lactic acid) was measured for CC1CCC(C(C)C)C(C(=O)Nc2ccc(CC(N)=O)cc2)C1 (stereo not shown) ?
2.5

Any idea what Soluble solution (solubility of non-natural cooling compound in lactic acid) was measured for `CCc1ccc(OCC(=O)N(Cc2cccs2)c2cc[nH]n2)cc1` ?
5

Any idea what Soluble solution (solubility of non-natural cooling compound in lactic acid) was measured for CC(C)C1CCC(C)(C)CC1C(=O)NCC(O)c1ccccc1 (stereo not shown) ?
5

---
Any idea what Soluble solution (solubility of non-natural cooling compound in lactic acid) was measured for CCNC(=O)C1CC(C)CCC1C(C)C (stereo not shown) [N-Ethyl-p-menthane-3-carboxamide] ?
10

Any idea what Soluble solution (solubility of non-natural cooling compound in lactic acid) was measured for CC1CCC(C(C)C)C(OC(=O)C(C)O)C1 (stereo not shown) ?
20
